- Test system: W2
- Procedure details: qHTS profiling for inhibitors of Plasmodium falciparum proliferation (AID 504749); also: nearly all actives have a fitted effect of over 60% in size
- Condition summary: P. falciparum in erythrocytes, SYBR Green DNA, 72 h; series mostly up to 28.7 µM
Inconclusive results are not listed. Active and inactive are the calls of the source. Calls follow the shape of the dose curve; as a rule, active = well fitted inhibition curve with a large enough effect; inconclusive = small, poorly fitted or top-dose-only effect; inactive = flat fitted curve, though single readings scatter.
Answer with one of the outcomes given here: t (active), f (inactive)

# Chem smiles, Assigned class
records = [
    ("CCCCCCCCCCCCCCCC[N+](C)(C)CC", "t"),
    ("Nc1ccc(/C=C/c2ccc(N)cc2S(=O)(=O)O)c(S(=O)(=O)O)c1", "f"),
    ("CCOc1ccc2nc3cc(N)ccc3c(N)c2c1", "t"),
]

In: // param item: COc1cccc2c1C(=O)c1c(O)c3c(c(O)c1C2=O)C[C@@](O)(C(C)=O)C[C@@H]3O[C@H]1C[C@H](N)[C@H](O)[C@H](C)O1 ; yields the recorded call
Out: t

In: Can you handle CCCOC(C(=O)OC1CCN(C)CC1)(c1ccccc1)c1ccccc1 next?
Out: t
